Target: EEF2 Elongation factor 2 (Homo sapiens, UniProt P13639)
Construct: isoTOP-ABPP experiments performed in cell lysates (in vitro); endogenous in cells; host or cells: soluble proteome of human cancer cell lines (MDA-MB-231; Ramos and Jurkat also prepared)
Test: competitive isoTOP-ABPP
Format: binding
Details: 50 uM, 231 sol, in vitro
Description: In vitro covalent fragment treatment for isoTOP-ABPP. All compounds were made up as solutions in DMSO (100×) and were used at a final concentration of 50 μM for activated esters and 100 μM for guanidinylating agents. […] R value calculation and processing. The ratios of light and heavy MS1 peaks for each unique peptide were quantified with a CIMAGE software using default parameters (3 MS1 acquisitions per peak and signal to noise threshold set to 2.5). […]
Listed here are compounds together with their documented isoTOP-ABPP reactivity ratio at lysine P13639_K318.
Lab note: jot down the number only; don't add units.

Answered cases to consult:
compound | measured_number
O=C(Oc1ccc([N+](=O)[O-])cc1[N+](=O)[O-])c1cc(C(F)(F)F)cc(C(F)(F)F)c1 [fragment 31] | 1.2
COc1cc(CCC(=O)Oc2ccc([N+](=O)[O-])cc2[N+](=O)[O-])cc(OC)c1OC [fragment 33] | 0.9
Cn1cc(CC(=O)Oc2ccc([N+](=O)[O-])cc2[N+](=O)[O-])c2ccccc21 [fragment 32] | 1.5

Would you kindly look at the next entry?
State, in one line, measured isoTOP-ABPP reactivity ratio at lysine P13639_K318 of O=C(Oc1c(F)c(F)c(F)c(F)c1F)c1ccc2ccccc2n1 [fragment 25] 2.3

###

biological target: KPNA2 Importin subunit alpha-2 (Homo sapiens, UniProt P52292); construct: isoTOP-ABPP experiments performed in cell lysates (in vitro); endogenous in cells; host or cells: soluble proteome of human cancer cell lines (MDA-MB-231, Ramos, Jurkat); assay: competitive isoTOP-ABPP; format: binding; details: 50 uM, in vitro, sol, 231
Listed here are molecules together with their documented isoTOP-ABPP ratio (R) at liganded lysine P52292_K459.
Lab note: jot down the number only; don't add units.

Give isoTOP-ABPP ratio (R) at liganded lysine P52292_K459 for this entry on KPNA2 Importin subunit alpha-2 (Homo sapiens, UniProt P52292): `O=C(Oc1ccc([N+](=O)[O-])cc1[N+](=O)[O-])c1ccc(-c2ccccc2)cc1` 0.9

Give isoTOP-ABPP ratio (R) at liganded lysine P52292_K459 for this entry on KPNA2 Importin subunit alpha-2 (Homo sapiens, UniProt P52292): O=C(Oc1ccc([N+](=O)[O-])cc1[N+](=O)[O-])c1ccc(Oc2ccccc2)cc1 [fragment 39, 2,4-Dinitrophenyl 4-phenoxybenzoate] 1.0

Give isoTOP-ABPP ratio (R) at liganded lysine P52292_K459 for this entry on KPNA2 Importin subunit alpha-2 (Homo sapiens, UniProt P52292): `O=C(CC12CC3CC(CC(C3)C1)C2)Oc1ccc([N+](=O)[O-])cc1[N+](=O)[O-]` 20.0

###

biological target: AKR1C3 Aldo-keto reductase family 1 member C3 (Homo sapiens); construct: isoTOP-ABPP experiments performed in cell lysates (in vitro); endogenous in cells; host or cells: soluble proteome of human cancer cell lines (MDA-MB-231; Ramos and Jurkat also prepared); experiment: competitive isoTOP-ABPP; format: binding; conditions: 50 uM, 231 sol, in vitro
Sequence (P42330 whole entry): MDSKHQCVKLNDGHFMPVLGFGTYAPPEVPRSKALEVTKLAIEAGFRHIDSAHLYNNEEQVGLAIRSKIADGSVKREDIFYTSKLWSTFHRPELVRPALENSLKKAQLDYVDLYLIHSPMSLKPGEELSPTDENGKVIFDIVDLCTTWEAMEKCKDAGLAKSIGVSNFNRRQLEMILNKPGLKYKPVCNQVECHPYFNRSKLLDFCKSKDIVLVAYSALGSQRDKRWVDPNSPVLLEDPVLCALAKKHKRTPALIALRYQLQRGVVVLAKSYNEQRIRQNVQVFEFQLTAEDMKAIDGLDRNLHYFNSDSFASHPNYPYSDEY
Returns one of 1.0 or 0.0; 1.0 when isoTOP-ABPP reactivity ratio at lysine P42330_K270 is >= 3.

Example entries and their recorded answers appear below.
structure_smiles | category
COc1cc(CCC(=O)Oc2ccc([N+](=O)[O-])cc2[N+](=O)[O-])cc(OC)c1OC | 0.0
O=C(CN1C(=O)c2ccccc2C1=O)Oc1c(F)c(F)c(F)c(F)c1F | 0.0
O=C(Oc1c(F)c(F)c(F)c(F)c1F)C1CCN(C(=O)OCc2ccccc2)CC1 | 1.0
CCn1cc(C(=O)Oc2c(F)c(F)c(F)c(F)c2F)c(=O)c2ccc(C)nc21 | 0.0

Would you kindly look at the next entry?
Decide: isoTOP-ABPP reactivity ratio at lysine P42330_K270 of `O=C(CCc1cn(-c2ccccc2)nc1-c1ccccc1)Oc1ccc([N+](=O)[O-])cc1[N+](=O)[O-]` >= 3? 0.0
